This collection of values is drawn from patent US20050209157A1.

Assay: in vitro
Assay type: cell-based, human
Details: human, human red blood cells, pH 7, Table 26, valine substitution; read-out: Hemolysis RBC LD50
Procedure: This hemolytic assay is based upon that presented in Journal of Peptide Research 53: 82-90 (1999). […] All procedures were performed according to safety protocols pertaining to the handling and disposal of human body fluids. Red blood cells (RBCs) were washed three times with PBS (35 mM phosphate buffer 0.15 M NaCl, pH 7.0). […] The absorbance at 414 nm (A414) was measured, and used to calculate the percent hemolysis according to the following formula. […]
No end group written: not given here.
quantity.measured: log10(HC50 at 1 h) (log10 of the value in µg/mL)

- substance: "FALALKALKKALKKLKKALKKAL-OH [compound 1]"
  log10(HC50 at 1 h): 1.30
- substance: "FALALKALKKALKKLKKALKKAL-NH2 [compound 2]"
  log10(HC50 at 1 h): 1.08
- substance: "FAKLLAKALKKLL-NH2 [compound 55]"
  log10(HC50 at 1 h): 1.30
- substance: "FALALKALKKLAKKLKKLAKKAL-NH2 [compound 25]"
  log10(HC50 at 1 h): 1.20
- substance: "FALALKALKKLLKKLKKLAKKAL-NH2 [compound 24]"
  log10(HC50 at 1 h): 1.00
- substance: "VALALKALKKLAKKLKKLAKKAL-NH2 [compound 509]"
  log10(HC50 at 1 h): 1.60
- substance: "VALALKALKKALKKLKKALKKAL-NH2 [compound 30]"
  log10(HC50 at 1 h): 2.18
- substance: "VAKLLAKLAKKLL-NH2 [compound 48]"
  log10(HC50 at 1 h): 2.11
- substance: "VAKLLAKLAKKVL-NH2 [compound 154]"
  log10(HC50 at 1 h): 2.94
- substance: "VAKKFAKKFKKFAKKFAKFAFAF-NH2 [compound 503]"
  log10(HC50 at 1 h): 1.30
- substance: "FALALKALKKL-NH2 [compound 165]"
  log10(HC50 at 1 h): 2.54
- substance: "VAKKLAKLAKKLLAL-NH2 [compound 505]"
  log10(HC50 at 1 h): 2.79

---

test system: P. aeruginosa H374; type: cell-based, Pseudomonas aeruginosa; conditions: Table 14; in µg/mL
No end group written: not given here.
quantity.measured: MIC P. aeruginosa H374

- substance: "FALALKA-NH2 [P141 (103)]"
  value: ">128"
- substance: "FAKLLAKLAKKGL-NH2 [P152 (114)]"
  value: ">128"
- substance: "FAKAIAKIAFGKGIGKVGKKLL-NH2 [P134 (96)]"
  value: 128
- substance: "FALLKALKKAL-NH2 [P171 (132)]"
  value: ">128"
- substance: "FALLKL-NH2 [P168 (129)]"
  value: 128
- substance: "FAKLWAKLAKKL-NH2 [P136 (98)]"
  value: ">128"
- substance: "FGKGIGKVGKKLL-NH2 [P132 (94)]"
  value: ">128"
- substance: "FAKGVGKVGKKAL-NH2 [P137 (99)]"
  value: ">128"
- substance: "FAKIIAKIAKKI-NH2 [P143 (105)]"
  value: ">128"
- substance: "FAKLLAKLAKAKL-NH2 [P65 (44)]"
  value: 64
- substance: "FAKLLAKKLL-NH2 [P57 (37)]"
  value: ">128"
- substance: "FAFGKGIGKIGKKGL-NH2 [P138 (100)]"
  value: ">128"
